Tested on: SR
Assay: NCI tumour cell line growth inhibition, 48 h
Active and inactive are the calls of the source. Rule as the data show it: active = GI50 up to about 1.1 µM and inactive = higher.
Permitted responses: YES = active, NO = inactive

[in] Which outcome did this test record for the compound COc1ccc2c(c1)CCC(CN1CCN(CCOC(c3ccc(F)cc3)c3ccc(F)cc3)CC1)=C2 ?
[out] NO

[in] I'd appreciate the recorded outcome for COC(=O)c1ccc(S)c(S(=O)(=O)Nc2nc(N)n[nH]2)c1 from this test.
[out] NO

[in] Given Cc1ccc2[nH]c3c(c2c1)C1CCC(C(C)(C)C)CC1C1C(=O)N(c2ccc(Oc4ccccc4)cc2)C(=O)C31 (centres undefined) , state the outcome it received in this test.
[out] YES

***
[in] Which result was noted for this compound in the test: O=C(CC(c1ccccc1)C1C(=O)NC(=S)NC1=O)c1ccc([N+](=O)[O-])cc1 (centres undefined)
[out] NO

----------
System: MDA-N
Test: NCI tumour cell line growth inhibition, 48 h
Active and inactive are the calls of the source. Cut-off read from the data, not from the text of the source: active = GI50 up to about 1.1 µM and inactive = higher.
Result category, one only: true for active, false for inactive

Sample answers from the record:
[in] Per the assay record, what outcome was assigned to CCCC1CC(=O)NC(=O)C1C(=O)OC(C)(C)C (configuration not stated) ?
[out] false

[in] Per the assay record, what outcome was assigned to O=c1c(O)c(-c2ccc(O)cc2O)oc2cc(O)cc(O)c12 [MORIN] ?
[out] false

[in] Kindly provide the recorded test outcome for the following compound: CN(C)CCn1c(=O)c2ccc3c4c(nn3CCN(C)C)c3cc(O)ccc3n(c1=O)c24
[out] true

[in] Hey, what did the test say about O=C(O)c1ccc(S(=O)(=O)c2ccccc2[N+](=O)[O-])cc1 ?
[out] false

[in] Short answer needed: outcome of this test for O=C(N/N=C\c1cccc2ccccc12)Nc1cccc2ccccc12 ?
[out] false

[in] Dear colleague, could you share the recorded outcome for C=C(C)C1Cc2c(cc3c(c2O)c(=O)c2ccccc2n3C)O1 (configuration not stated) when you have a moment?
[out] false

Turning now to a further compound:
[in] Please state the recorded outcome for this compound: O=C1N2CCc3c([nH]c4ccccc34)C23CC2CCCCC12S3 (configuration not stated)
[out] false

----------
System: SF-268
Assay: NCI tumour cell line growth inhibition, 48 h
Calls of active or inactive are those of the source. No stated cut-off is given here; in the data, active = GI50 up to about 1.1 µM and inactive = higher. Non-standard residues stand in square brackets, D forms with d. Residues, ends and D or L forms follow the SMILES beside them. ξ: configuration not given here. *: point of attachment. NMeF = CN[C@@H](Cc1ccccc1)C(=O)O; ξNMeV = CNC(C(=O)O)C(C)C; Boc = CC(C)(C)OC(=O)*; OBn = c1ccc(CO*)cc1
Entry note: the call must match one of active, inactive

Solved cases (10 shown):
[in] Outcome logged for CN(C)CCCCN1c2ccccc2Sc2ccc(N=[N+]=[N-])cc21 in this assay:
[out] inactive

[in] Record lookup: outcome of this test for CCCOC(=O)CCC(NC(=O)c1ccc(Nc2nc3ccccc3nc2-c2cccs2)cc1)C(=O)OCCC (stereo not drawn) ?
[out] inactive

[in] Tell me the recorded outcome of this test for CCNC(=O)Cc1nc2c(O)ncnc2n1C1OC(CO)C(O)C1O (stereo not drawn) .
[out] inactive

[in] Write down the call the test reported for this molecule. Item: [N-]=[N+]=NCc1nc(N)c2c3c(sc2n1)CCCC3
[out] inactive

[in] Name the outcome recorded for COc1ccc2c(c1)CCC(CN1CCN(CCOC(c3ccc(F)cc3)c3ccc(F)cc3)CC1)=C2 in the assay.
[out] inactive

[in] Hello, I am checking results. What call was entered for COC(=O)c1cc2c(cc1CC(Cc1ccc3c(c1)CCCC3)C(=O)OC)CCCC2 (stereo not drawn) ?
[out] inactive

[in] Outcome? CCCCN=C(OC1C=CCCC1)SC (stereo not drawn)
[out] inactive

[in] Just curious, what result did CC1CC2=Nc3ccccc3NC(c3ccccc3)C2=C(O)O1 (stereo not drawn) get here?
[out] inactive

[in] Per the assay record, what outcome was assigned to O=C1NCc2ccccc2S(=O)(=O)n2cccc21 ?
[out] inactive

[in] Could you check what this test reported for O=c1c(O)c(-c2ccc(O)cc2O)oc2cc(O)cc(O)c12 [MORIN] ?
[out] inactive

Others:
[in] Short answer needed: outcome of this test for C#CCSC(C=C=C)P(=O)(OC(C)C)OC(C)C (stereo not drawn) ?
[out] inactive

[in] # lookup: test call for CN(C)C(=S)SCc1ccccc1
[out] inactive

[in] What classification did O=c1cccc2n1C[C@H]1CNC[C@H]2C1 end up with in this test?
[out] inactive

[in] Query: recorded result category for C=CCCCCCC(O)C(O)C/C=C\C/C=C\CC (stereo not drawn) in this test
[out] inactive

[in] // return assay outcome for Cc1ccc(C)c(NC(=O)CC/C(=N\NC(=O)C(N)=O)C(C)C(=O)c2ccc(O)cc2)c1 (stereo not drawn)
[out] inactive

[in] # outcome recorded in this test, key = CC(=O)OC(C)(C)C[N+](=O)[O-]
[out] inactive

[in] Test call for this molecule, please: COc1ccc2nc3cc(Cl)ccc3c(NCCCNCc3cc(OC)c(OC)c(OC)c3)c2c1
[out] inactive

[in] In this assay, the call recorded for COC(=O)C(Cc1nc2ccccc2nc1C)/C(=N\NC(N)=O)C(=O)Nc1cccc([N+](=O)[O-])c1 (stereo not drawn) was what?
[out] inactive

[in] Look up the recorded call for O=C(Cn1cc(Br)c(=O)[nH]c1=O)c1ccc(-c2ccccc2)cc1 in this test.
[out] inactive

[in] Tell me the recorded outcome of this test for C=CCNC1=NC(=O)C(CC(=O)Nc2cccc(Cl)c2)S1 (stereo not drawn) .
[out] inactive

[in] Could you check what this test reported for C=CCC1(C)CCCN(Cc2ccccc2)C1=O (stereo not drawn) ?
[out] inactive

[in] In this assay, the call recorded for COc1cccc2c1C(=O)c1c(O)c3c(c(O)c1C2=O)C[C@@](O)(C(=O)CO)C[C@@H]3OC1CC(N)CC(C)O1 (stereo partly drawn) was what?
[out] active

[in] // param item: O=C1C(c2c(O)[nH]c3ccc([N+](=O)[O-])cc23)=Nc2ccccc21 ; yields the recorded call
[out] inactive

[in] What did this assay record as the result for CC(C)C(C(=O)N1CCC[C@@H]1C(=O)OCc1ccccc1)N(C)C(=O)C(C(C)C)N(C)C(=O)[C@H](Cc1ccccc1)N(C)C(=O)[C@H](NC(=O)OC(C)(C)C)C(C)C (stereo partly drawn) (Boc-[dV][NMeF][ξNMeV][ξNMeV][dP]-OBn) ?
[out] inactive

[in] Dear all, I need the recorded test outcome for O=C1NC(=O)/C(=C/c2ccc(S(=O)(=O)N/N=C/c3ccccc3)cc2)N1 , thank you.
[out] inactive

[in] Dear all, I need the recorded test outcome for CN(CCO)c1nc(=O)c2c([nH]1)CCC2 , thank you.
[out] inactive

[in] Which result was noted for this molecule in the test: N=S(c1ccccc1[N+](=O)[O-])c1ccccc1[N+](=O)[O-]
[out] inactive

[in] Recorded test outcome, item C=C/C=C/NC(=O)OCc1ccccc1
[out] inactive

[in] Hi team, can someone confirm the assay call for CC(=O)O[C@H]1C[C@H](O[C@H]2[C@@H](O)C[C@H](O[C@H]3[C@@H](O)C[C@H](O[C@H]4CC[C@@]5(C)[C@H](CC[C@@H]6[C@@H]5CC[C@]5(C)[C@@H](C7=CC(=O)OC7)CC[C@]65O)C4)O[C@@H]3C)O[C@@H]2C)O[C@H](C)[C@H]1O[C@@H]1O[C@H](CO)[C@@H](O)[C@H](O)[C@H]1O ?
[out] active

[in] Could you check what this test reported for C/C(CC1C2CCCC1C2)=N\NC(N)=O (stereo not drawn) ?
[out] inactive

[in] Any idea what this test logged for O=C1Nc2c(Cl)cc(Cl)cc2/C1=N/Nc1ccccc1[N+](=O)[O-] ?
[out] inactive

[in] What call does the record list for O=C1NC(=O)C(CCC(=O)c2cccc3ccccc23)C(=O)N1 ?
[out] inactive

[in] // outcome(item) with item = COCOCC[C@@H]1CC=CC(NC(=O)OCc2ccccc2)C1/C=C/C(=O)CCC1OCCO1 (stereo partly drawn)
[out] inactive

----------
System: OVCAR-5
Assay: NCI tumour cell line growth inhibition, 48 h
The source made the active and inactive calls. No stated cut-off is given here; in the data, active = GI50 up to about 1.1 µM and inactive = higher.
Task for the reader: assign each of the following compounds its reported GI50.

Solved cases (8 shown):
Record COC(=O)OCC1OC(N2C(=O)NC(=O)C(Br)C2N=[N+]=[N-])CC1OC(=O)OC (centres undefined) ; system OVCAR-5; GI50 = > 100 µM (inactive)

Lab note: compound O=C(N/N=C\c1cccc2ccccc12)Nc1cccc2ccccc12 tested on OVCAR-5; recorded GI50 was > 100 µM (inactive)

The compound OCCN1CCN2C=C(C3CCCC4N(CCO)CCN34)CCC21 (centres undefined) , when measured on OVCAR-5, yielded GI50 of > 100 µM (inactive)

So the reported GI50 for N#CC1Nc2ccccc2[C@@H](O)C1O (some centres undefined) , on OVCAR-5, turned out to be > 100 µM (inactive)

The measured GI50 that CC(=O)O[C@H]1[C@H](OC(=O)CC(C)(O)CC(=O)O)C[C@]2(C)C3=C(CCC2C1(C)C)[C@]1(C)CC[C@H]([C@H]2CC[C@H](C(C)(C)O)OC2O)[C@@]1(C)[C@@H](O)C3 (some centres undefined) showed for OVCAR-5 is 17.3 µM (inactive)

GI50 value, target or system OVCAR-5, for C=C(CO)CC(O)c1cc(OC)ccc1OC (centres undefined) : > 100 µM (inactive)

Hey, OVCAR-5 data for N=C(N)NS(=O)(=O)c1ccc(Nc2c3ccccc3nc3c(C(=O)NCCO)cccc23)cc1 : GI50 came out at 0.244 µM (active)

Value (GI50, OVCAR-5) for record Sc1nnc(-c2cccnc2)[nH]1 = > 100 µM (inactive)

Working through the 4 compounds below one at a time, give GI50 for each.
1. O=C1NC(=O)C(CCC(=O)c2cccc3ccccc23)C(=O)N1
2. CCCC1CC(=O)NC(=O)C1C(=O)OC(C)(C)C (centres undefined)
3. CC(=O)NC(CCCOC(C)=O)C(=O)NC(CCCOC(C)=O)C(=O)NC(CCCOC(C)=O)C(=O)NC(Cc1ccc([N+](=O)[O-])cc1)C(=O)NCC(=O)OCc1ccccc1 (centres undefined)
4. O=S(=O)(c1ccc(Br)cc1)n1c2ccc(Br)cc2c2nc3ccccc3nc21

[out]
["> 100 µM (inactive)", "> 100 µM (inactive)", "> 100 µM (inactive)", "> 100 µM (inactive)"]
